Test system: LAETG (Abz-LAETGK(Dnp)-CONH2)
assay_protocol: In vitro sortase kinetics HPLC assay, LAETG substrate
Type: biochemical
condition_description: substrate 2A (LAETG); read-out: Km, LxExG

| molecule | Km |
| --- | --- |
| 2A.6A: 5mut + A104H K138V K162R I182V (protein) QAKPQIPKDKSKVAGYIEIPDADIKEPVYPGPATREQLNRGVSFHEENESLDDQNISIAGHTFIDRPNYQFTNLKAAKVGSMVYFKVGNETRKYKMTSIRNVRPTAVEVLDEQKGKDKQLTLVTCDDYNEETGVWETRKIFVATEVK | 608 µM |
| eSrtA(2A-5): 5mut + R99H A104H K138I K162R I182V (protein) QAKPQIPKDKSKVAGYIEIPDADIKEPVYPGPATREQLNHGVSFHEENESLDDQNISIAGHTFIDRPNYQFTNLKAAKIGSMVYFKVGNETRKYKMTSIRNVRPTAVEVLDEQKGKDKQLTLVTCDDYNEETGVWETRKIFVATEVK | 433 µM |
| eSrtA (protein) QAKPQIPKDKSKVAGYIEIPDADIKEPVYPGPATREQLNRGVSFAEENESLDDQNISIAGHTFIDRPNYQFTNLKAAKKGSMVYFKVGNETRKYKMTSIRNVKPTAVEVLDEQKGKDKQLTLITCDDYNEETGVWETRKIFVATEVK | 6160 µM |
| 2A.6C: 5mut + A104H K138P K152I D160K* K162R I182V (protein) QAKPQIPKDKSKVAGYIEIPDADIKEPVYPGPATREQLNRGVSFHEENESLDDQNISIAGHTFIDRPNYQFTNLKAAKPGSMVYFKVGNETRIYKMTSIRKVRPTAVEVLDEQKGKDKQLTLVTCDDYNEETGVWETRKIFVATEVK | 343 µM |
| eSrtA(2A-4): 5mut + A104H K162R V168I I182V (protein) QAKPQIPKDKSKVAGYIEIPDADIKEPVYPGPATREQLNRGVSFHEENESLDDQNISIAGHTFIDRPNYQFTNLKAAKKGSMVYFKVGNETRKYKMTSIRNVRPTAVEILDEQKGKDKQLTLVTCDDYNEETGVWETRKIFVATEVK | 3250 µM |
| eSrtA(2A-3.5) (protein) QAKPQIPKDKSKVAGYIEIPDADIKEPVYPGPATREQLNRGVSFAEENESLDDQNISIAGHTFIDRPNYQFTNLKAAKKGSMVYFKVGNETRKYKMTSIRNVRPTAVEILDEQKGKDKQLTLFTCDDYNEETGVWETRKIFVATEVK | 7160 µM |
| 2A.6B: 5mut + R99K A104H K138V D160K* K162R I182V (protein) QAKPQIPKDKSKVAGYIEIPDADIKEPVYPGPATREQLNKGVSFHEENESLDDQNISIAGHTFIDRPNYQFTNLKAAKVGSMVYFKVGNETRKYKMTSIRKVRPTAVEVLDEQKGKDKQLTLVTCDDYNEETGVWETRKIFVATEVK | 310 µM |

Source: patent US10202593B2
